# TEST_TARGET: Substance-K receptor (Homo sapiens, UniProt P21452)
# Sequence (P21452 whole entry): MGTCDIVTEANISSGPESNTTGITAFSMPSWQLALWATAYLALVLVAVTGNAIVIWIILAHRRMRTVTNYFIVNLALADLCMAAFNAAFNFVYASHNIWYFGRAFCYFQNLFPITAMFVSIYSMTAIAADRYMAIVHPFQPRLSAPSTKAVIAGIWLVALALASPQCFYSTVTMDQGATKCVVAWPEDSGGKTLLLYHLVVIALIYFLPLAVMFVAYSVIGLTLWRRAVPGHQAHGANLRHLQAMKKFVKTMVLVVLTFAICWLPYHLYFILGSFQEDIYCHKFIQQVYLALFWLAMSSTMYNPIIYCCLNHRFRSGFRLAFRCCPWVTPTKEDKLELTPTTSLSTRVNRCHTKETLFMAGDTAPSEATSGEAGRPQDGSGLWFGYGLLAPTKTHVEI
# ASSAY_PROTOCOL: Tested for binding affinity against Tachykinin receptor 2 expressed in CHO cells, using [125]SP as radioligand.
# Format: cell-based
Measured IC50 values are reported for all entries that follow.
API: value field is a number in nM; no unit string.

Query string: What measured IC50 goes with C[C@H](NC(=O)CN)C(=O)N[C@H]1CSSC[C@@H](C(=O)O)NC(=O)[C@H](CO)NC(=O)[C@H]([C@@H](C)O)NC(=O)[C@H](Cc2ccccc2)NC(=O)[C@H]([C@@H](C)O)NC(=O)[C@H](Cc2ccc(F)cc2)NC(=O)[C@@H](Cc2c[nH]c3ccccc23)NC(=O)[C@H](Cc2ccccc2)NC(=O)[C@H](Cc2ccccc2)NC(=O)[C@H](CC(N)=O)NC(=O)[C@H](CCCCN)NC1=O ?
Result string: 27
